Where do the numbers come from? From patent US20230391714A1.

Here the recorded solubility thermodynamic at 16 h is given for each entry.
- Run Description: Thermodynamic solubility in PBS
- Type: physicochemical
- Cond: aqueous buffer, thermodynamic from solid; PBS at pH 7.4, room temperature, stirring for 16 hours
Measure: solubility thermodynamic at 16 h

>>> reported_result("CN1CCN(Cc2cc(-c3ccc(F)cc3)ccc2OCC(=O)NCc2ccc(Cl)cc2)CC1.O=CO [NUCC-0200590 FA salt]")
"45 µM"
>>> reported_result("CN1CCN(Cc2cc(-c3ccc(F)cc3)ccc2OCC(=O)NCc2ccc(Cl)cc2)CC1.Cl [NUCC-0200590 HCl salt]")
"252 µM"

----------
Here the recorded IC50 is given for each entry.
- Measured On: TRIP8b-HCN1c40 (Homo sapiens (Human), UniProt Q8IYB4)
- Sequence (Q8IYB4 265-626): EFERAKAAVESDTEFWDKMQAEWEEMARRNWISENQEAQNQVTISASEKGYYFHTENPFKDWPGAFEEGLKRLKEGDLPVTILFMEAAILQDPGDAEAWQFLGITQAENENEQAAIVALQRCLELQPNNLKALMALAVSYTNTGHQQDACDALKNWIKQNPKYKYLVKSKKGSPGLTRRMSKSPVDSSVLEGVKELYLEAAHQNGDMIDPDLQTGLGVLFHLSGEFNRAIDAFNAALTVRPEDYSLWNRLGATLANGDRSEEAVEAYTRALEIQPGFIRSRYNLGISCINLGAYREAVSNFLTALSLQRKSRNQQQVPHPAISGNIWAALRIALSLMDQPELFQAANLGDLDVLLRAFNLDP
- Run Description: TRIP8b-HCN1c40 AlphaScreen assay
- Assay type: binding
- Cond: read-out: TRIP8b-HCN1c40 Alphascreen IC50
- Method: AlphaScreen Assay. 20 nM ofGST-tagged HCNlc40 protein (corresponding to the C terminal 40 amino acids of HCN1) was incubated with 200 nM of His-tagged TRIP8b(241-602) and varying concentrations of the test compound as described in our prior report (Han et al., 2015). […] AlphaScreen signal was quantified using a PerkinElmer (Waltham, MA) EnSpire multimode plate reader.
Measure: IC50

>>> reported_result("COc1ccc(CNC(=O)COc2ccc(-c3ccc(C)cc3)cc2CN2CCCN(C)CC2)c(OC)c1")
"15 µM"
>>> reported_result("C=Cc1ccc(-c2ccc(OCC(=O)NCc3ccc(Cl)cc3)c(CN3CCN(C)CC3)c2)cc1")
"4.7 µM"
>>> reported_result("CN1CCN(Cc2cc(-c3ccc(F)cc3)ccc2OCC(=O)NCCN2CCCCC2)CC1")
"> 200 µM"
>>> reported_result("CN1CCN(Cc2cc(-c3ccc(C(F)(F)F)cc3)ccc2OCC(=O)NCc2ccc(Cl)cc2)CC1")
"3.9 µM"
>>> reported_result("CN1CCN(Cc2cc(-c3ccc(Cl)c(Cl)c3)ccc2OCC(=O)NCc2ccc(Cl)cc2)CC1 [NUCC-0201973]")
"1.3 µM"
>>> reported_result("CN1CCN(Cc2cc(-c3ccc(Cl)c(Cl)c3)ccc2OCC(=O)NCc2ccc(C(F)(F)F)cc2)CC1")
"2.5 µM"
>>> reported_result("Cc1ccc(-c2ccc(OCC(=O)NCc3cnc[nH]3)c(CN3CCC(N(C)C)CC3)c2)cc1")
"> 40 µM"
>>> reported_result("Cc1cccc(-c2ccc(OCC(=O)Nc3cccc(S(C)(=O)=O)c3)c(CN3CC[C@H](N)C3)c2)c1")
"19 µM"

----------
- Measured On: TRIP8b-HCN1c40 (Homo sapiens (Human))
- Run Description: TRIP8b-HCN1c40 AlphaScreen assay
- Type: binding
- Cond: read-out: TRIP8b-HCN1c40 Alphascreen IC50
pIC50: −log10 of the molar value.
Here the recorded pIC50 is given for each entry.
Measure: pIC50

>>> reported_result("CN1CCN(Cc2cc(-c3ccc(CO)cc3)ccc2OCC(=O)Nc2ccc(Cl)c(Cl)c2)CC1")
5.49
>>> reported_result("CN1CCN(Cc2cc(-c3ccc(Cl)c(Cl)c3)ccc2OCC(=O)Nc2ccc(Cl)cc2)CC1")
6.11
>>> reported_result("Cc1ccc(-c2ccc(OC(C)C(=O)NCc3ccc(Cl)cc3)c(CN3CCN(C)CC3)c2)cc1 (stereo not drawn)")
5.47
>>> reported_result("CN1CCN(Cc2cc(-c3ccc(Cl)c(Cl)c3)ccc2OCC(=O)N2CCc3ccccc32)CC1")
5.92
>>> reported_result("Cc1ccc(-c2ccc(OCC(=O)NCc3ccc(Cl)cc3)c(CN3CCOCC3)c2)cc1")
5.09
>>> reported_result("COc1cc(NC(=O)COc2ccc(-c3cccc(C)c3)cc2CN2CC[C@H](N)C2)cc(OC)c1OC")
4.89
>>> reported_result("CC(Oc1ccc(-c2ccc(Cl)c(Cl)c2)cc1CN1CCN(C)CC1)C(=O)NCc1ccc(Cl)cc1 (stereo not drawn)")
6.03
>>> reported_result("Cc1ccc(-c2ccc(OCC(=O)NCc3ccc(F)cc3)c(CN3CCC(N(C)C)CC3)c2)cc1")
4.80
>>> reported_result("Cc1ccc(-c2ccc(OCC(=O)NCc3cccc(Cl)c3)c(CN3CCC(N(C)C)CC3)c2)cc1")
5.30
>>> reported_result("CN1CCN(Cc2cc(-c3ccc(Cl)c(Cl)c3)ccc2OCCNS(=O)(=O)c2ccc(Cl)cc2)CC1")
5.77
>>> reported_result("CN1CCN(Cc2cc(-c3ccc(Cl)c(Cl)c3)ccc2OCC(=O)NCc2cccc(Cl)c2)CC1")
5.96
>>> reported_result("CC(C)c1ccc(-c2ccc(OCC(=O)NCc3ccc(Cl)cc3)c(CN3CCNCC3)c2)cc1")
5.24

----------
- Measured On: UniProtKB Q8IYB4
- Run Description: TRIP8b-HCN1c40 AlphaScreen assay
- Type: binding
- Cond: activity ranges; read-out: TRIP8b-HCN1c40 Alphascreen IC50 activity
Here the recorded IC50 is given for each entry.
Measure: IC50

>>> reported_result("CN1CCN(Cc2cc(-c3cccc(S(C)(=O)=O)c3)ccc2OCC(=O)Nc2ccc(Cl)c(Cl)c2)CC1 [NUCC-0202022]")
"2 to 5 µM"
>>> reported_result("CN1CCN(Cc2cc(-c3ccc(Cl)c(Cl)c3)ccc2OCC(=O)NCCc2ccc(C(F)(F)F)cc2)CC1 [NUCC-0201995]")
"< 1 µM"
>>> reported_result("CN1CCN(Cc2cc(-c3ccc(Cl)cc3Cl)ccc2OCC(=O)Nc2ccc(Cl)c(Cl)c2)CC1 [NUCC-0202001]")
"< 1 µM"
>>> reported_result("CN1CCN(Cc2cc(-c3ccccc3)ccc2OCC(=O)Nc2ccc(Cl)c(Cl)c2)CC1 [NUCC-0202004]")
"< 1 µM"
>>> reported_result("Cc1ccc(NC(=O)COc2ccc(-c3cccc(C)c3)cc2CN2CC[C@H](N)C2)cc1 [NUCC-0201618]")
"5 to 10 µM"
>>> reported_result("CN1CCN(Cc2cc(-c3ccc(CCl)cc3)ccc2OCC(=O)NCc2ccc(Cl)c(Cl)c2)CC1 [NUCC-0201971]")
"5 to 10 µM"
>>> reported_result("CN1CCN(Cc2cc(-c3ccc(Cl)c(Cl)c3)ccc2OCC(=O)N2Cc3ccc(Cl)cc3C2)CC1 [NUCC-0201993]")
"1 to 2 µM"

----------
- Measured On: TRIP8b-HCN1c40 (Homo sapiens (Human), UniProt Q8IYB4)
- Run Description: TRIP8b-HCN1c40 AlphaScreen assay
- Assay type: binding
- Cond: activity ranges; read-out: TRIP8b-HCN1c40 Alphascreen IC50 activity
Measure: IC50

>>> reported_result("CN1CCN(Cc2cc(-c3ccc(Cl)c(Cl)c3)ccc2OCCNCc2ccc(Cl)cc2)CC1 [NUCC-0201976]")
"< 1 µM"
>>> reported_result("Cc1ccc(-c2ccc(OCC(=O)NCc3ccc(Cl)cc3)c(CN3CCNCC3)c2)cc1 [NUCC-0201614]")
"5 to 10 µM"
>>> reported_result("CN1CCN(Cc2cc(-c3ccc(Cl)c(Cl)c3)ccc2OCC(=O)NCc2ccc(Cl)cc2)CC1 [NUCC-0201973]")
"1 to 2 µM"
>>> reported_result("CN1CCN(Cc2cc(-c3ccc(Cl)c(Cl)c3)ccc2OCC(=O)NCc2ccccc2)CC1 [NUCC-0201987]")
"2 to 5 µM"
>>> reported_result("CN1CCN(Cc2cc(-c3ccc(Cl)c(Cl)c3)ccc2OCC(=O)NC2Cc3ccc(Cl)cc3C2)CC1 (centres unmarked) [NUCC-0201992]")
"< 1 µM"
>>> reported_result("CN1CCN(Cc2cc(-c3ccc(Cl)cc3Cl)ccc2OCC(=O)NCc2ccc(Cl)c(Cl)c2)CC1 [NUCC-0201978]")
"< 1 µM"
>>> reported_result("Cc1cccc(-c2ccc(OCC(=O)Nc3cccc(S(C)(=O)=O)c3)c(CN3CC[C@H](N)C3)c2)c1 [NUCC-0201622]")
"10 to 20 µM"
>>> reported_result("Cc1ccc(-c2ccc(OCC(=O)NCc3ccc(Cl)cc3)c(CN3CCC(N(C)C)CC3)c2)cc1 [NUCC-0201607]")
"5 to 10 µM"
>>> reported_result("CN1CCN(Cc2cc(-c3ccc(N)cc3)ccc2OCC(=O)NCc2ccc(Cl)cc2)CC1 [NUCC-0202053]")
"10 to 20 µM"
>>> reported_result("CN1CCN(Cc2ccc(-c3ccc(F)c(C(F)(F)F)c3)cc2OCC(=O)NCc2ccc(Cl)cc2)CC1 [NUCC-0202013]")
"1 to 2 µM"
>>> reported_result("CN1CCN(Cc2cc(-c3ccccc3Cl)ccc2OCC(=O)Nc2ccc(Cl)c(Cl)c2)CC1 [NUCC-0201997]")
"< 1 µM"

----------
- Measured On: TRIP8b-HCN1c40 (Homo sapiens (Human), UniProt Q8IYB4)
- Run Description: TRIP8b-HCN1c40 AlphaScreen assay
- Format: binding
- Cond: activity ranges; read-out: TRIP8b-HCN1c40 Alphascreen IC50 activity
pIC50: −log10 of the molar value.
Measure: pIC50

>>> reported_result("CSc1ccc(-c2ccc(OCC(=O)NCc3ccc(Cl)cc3)c(CN3CCN(C)CC3)c2)cc1")
"5.30 to 5.70"
>>> reported_result("CN1CCN(Cc2cc(-c3ccc4c(c3)OCCO4)ccc2OCC(=O)Nc2ccc(Cl)c(Cl)c2)CC1")
"5.70 to 6.00"
>>> reported_result("Cc1cccc(-c2ccc(OCC(=O)Nc3ccc(Cl)c(Cl)c3)c(CN3CC[C@H](N)C3)c2)c1")
"5.70 to 6.00"
>>> reported_result("CN1CCN(Cc2cc(-c3ccc(Cl)c(Cl)c3)ccc2OCC(=O)N2CCc3cc(Cl)ccc32)CC1")
"> 6.00"
>>> reported_result("CN1CCN(Cc2cc(-c3ccc(Cl)c(Cl)c3)ccc2OCC(=O)N2CCc3ccccc32)CC1")
"5.70 to 6.00"
>>> reported_result("CN1CCN(Cc2cc(-c3ccc(F)c(C(F)(F)F)c3)ccc2OCC(=O)NCc2ccc(Cl)cc2)CC1")
"5.30 to 5.70"
>>> reported_result("CN1CCN(Cc2cc(-c3ccc(F)cc3)ccc2OCC(=O)NCc2ccc(C(F)(F)F)cc2)CC1")
"4.70 to 5.00"
>>> reported_result("Cc1ccc(-c2ccc(OCC(=O)NCc3ccccc3)c(CN3CCCN(C)CC3)c2)cc1")
"4.70 to 5.00"
>>> reported_result("CN1CCN(Cc2cc(-c3ccc(F)cc3)ccc2OCC(=O)NCc2ccc(Cl)cc2)CC1")
"5.00 to 5.30"
>>> reported_result("CN1CCN(Cc2ccc(-c3ccc(F)cc3)cc2OCC(=O)NCc2ccc(Cl)cc2)CC1")
"5.00 to 5.30"
>>> reported_result("CN1CCN(Cc2cc(-c3ccc(Cl)c(Cl)c3)ccc2OCC(=O)NC2Cc3ccccc3C2)CC1")
"5.70 to 6.00"
>>> reported_result("CC(Oc1ccc(-c2ccc(Cl)cc2)cc1CN1CCN(C)CC1)C(=O)NCc1ccc(Cl)cc1 (stereo not shown)")
"5.70 to 6.00"
>>> reported_result("COc1cc(NC(=O)COc2ccc(-c3cccc(C)c3)cc2CN2CC[C@H](N)C2)cc(OC)c1OC")
"4.70 to 5.00"
>>> reported_result("CN1CCN(Cc2cc(-c3cccnc3)ccc2OCC(=O)Nc2ccc(Cl)c(Cl)c2)CC1")
"5.00 to 5.30"
>>> reported_result("CN1CCN(Cc2cc(-c3ccc(Cl)cc3)ccc2OCC(=O)NCc2ccc(Cl)c(Cl)c2)CC1")
"> 6.00"
>>> reported_result("Cc1ccccc1-c1ccc(OCC(=O)NCc2ccc(Cl)cc2)c(CN2CCNCC2)c1")
"5.00 to 5.30"
